Test system: Human immunodeficiency virus 1
ASSAY_OVERVIEW: Anti-HIV activity against NNRTI-resistant HIV-1 harboring RT F227L/V106A double mutant infected in human MT4 cells assessed as inhibition of virus-induced cytopathic effect incubated for 5 days by MTT assay
Format: functional, organism-based
CONDITION_INFO: Human immunodeficiency virus 1, MT4, 120 h
pEC50: −log10 of the molar value.
Label Met for high-side pEC50 (at or above 7) and Not met for low-side pEC50 (below it).

### Prompt Decide: is the reported value of pEC50 for Cc1cc(C#N)cc(C)c1Oc1nc(Nc2ccc(C#N)cc2)ncc1C#CC(=O)NC1CC1 equal to or greater than 7?
### Response Not met

### Prompt pEC50 >= 7 for Cc1cc(C#N)cc(C)c1Oc1nc(Nc2ccc(C#N)cc2)ncc1SCC(=O)NCCCN1CCOCC1 ?
### Response Not met

### Prompt Identify whether the reported pEC50 of the following molecule is 7 or greater: CCOC(=O)C#Cc1cnc(Nc2ccc(C#N)cc2)nc1Oc1c(C)cc(C#N)cc1C
### Response Met

### Prompt Threshold query (pEC50 >= 7) on COC(=O)C1CCC(NC(=O)C#Cc2cnc(Nc3ccc(C#N)cc3)nc2Oc2c(C)cc(C#N)cc2C)CC1 (stereo not drawn)
### Response Not met

### Prompt Check this molecule for pEC50 at or above 7: C#CCNC(=O)C#Cc1cnc(Nc2ccc(C#N)cc2)nc1Oc1c(C)cc(C#N)cc1C
### Response Not met

### Prompt Does the reported pEC50 for Cc1cc(C#N)cc(C)c1Oc1nc(Nc2ccc(C#N)cc2)nc(N)c1Br fall at or above the 7 mark?
### Response Met
